Percent Inhibition for assorted compounds
Tested on: isoamylase of Xanthomonas maltophilia S-517
experiment.notes: Influence of inhibitors and metal salts on isoamylase activity
Format: biochemical
cond: inhibitor concentration 1 mM

Take a look at these entries with their results.
# compound, system.name, Percent Inhibition
rows = [
    ("O=C(O)c1cc[c]([Hg][Cl])cc1", "isoamylase of Xanthomonas maltophilia S-517", "0%"),
    ("[F-].[Na+]", "isoamylase of Xanthomonas maltophilia S-517", "0%"),
    ("O=[N+]([O-])[O-].[Ag+]", "isoamylase of Xanthomonas maltophilia S-517", "98.0%"),
    ("[Cl][Cu][Cl]", "isoamylase of Xanthomonas maltophilia S-517", "20.7%"),
    ("[Cl][Hg][Cl]", "isoamylase of Xanthomonas maltophilia S-517", "42.2%"),
]

Item under review: `[Cl-].[Cl-].[Mg+2]` . Reported Percent Inhibition?
26.3%

Field request: Percent Inhibition | item: I[I-]I.[K+] [Potassium iodoiodide]
4.5%
